// provenance: paper PMC9482650

Target: SCRIB_1, Q14160
Sequence (Q14160 718-814): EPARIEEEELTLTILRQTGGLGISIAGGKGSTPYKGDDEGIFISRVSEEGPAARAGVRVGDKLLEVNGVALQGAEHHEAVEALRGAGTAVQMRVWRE
Assay: holdup assay
Parameters: key: below the threshold = too weak to quantify, mostly under pKd 3.1 to 4
Conditions: plain residues with an end cap or a label only (N-terminal biotin on a linker: ttds)
MEASURED_QUANTITY: pKd

BINDER: RHTTSTETAV [HPV30-E6, P36809]
RECORDED_MEASUREMENT: 4.76
--
BINDER: SKPTRRETEV [HPV35-E6, P27228]
RECORDED_MEASUREMENT: 4.56
--
BINDER: PVRVCEETSL [OTULIN, Q96BN8]
RECORDED_MEASUREMENT: 5.44
--
BINDER: SSLQSLETSV [ATP2B4, P23634]
RECORDED_MEASUREMENT: 5.03
--
BINDER: NDPAWDETNL [ARHGEF7, Q14155;Q14155-1]
RECORDED_MEASUREMENT: 5.5
--
BINDER: EMDRRPATVV [PLCB4, Q15147]
RECORDED_MEASUREMENT: 3.84
